Target: T1, Rnd2 GTPase (residues 1-227), loaded with GMPPNP (UniProt P52198 1-227)
T1 sequence (looked up): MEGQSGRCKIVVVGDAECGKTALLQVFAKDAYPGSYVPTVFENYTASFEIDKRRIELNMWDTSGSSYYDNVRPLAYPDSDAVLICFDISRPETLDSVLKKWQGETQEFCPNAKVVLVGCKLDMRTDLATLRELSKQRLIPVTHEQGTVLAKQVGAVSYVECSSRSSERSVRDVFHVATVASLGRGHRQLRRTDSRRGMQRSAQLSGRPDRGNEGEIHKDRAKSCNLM
Test: ITC
The entries below are paired with their reported Ka.
recorded metric: Ka

binder="plexin-D1 RBD S1614V/T1615A (domain or fragment) AKPRNLNVSFQGCGMDSLSVRAMDTDTLTQVKEKILEAFCKNVPYSQWPRAEDVDLEWFASVAQSYILRDLDDTSVVEDGRKKLNTLAHYKIPEGASLAMSLIDKKDNTLGRVKDLDTEKYFHLVL" data_value="130000 M⁻¹"
binder="plexin-C1 RBD K1267L (domain or fragment) TVALNVVFEKIPENESADVCRNISVNVLDCDTIGQAKEKIFQAFLSKNGSPYGLQLNEIGLELQMGTRQLELLDIDSSSVILEDGITKLNTIGHYEISNGSTIKVFKK" data_value="90000 M⁻¹"
